# assay system: Acetylcholinesterase (Homo sapiens, UniProt P22303)
# Sequence (P22303 whole entry): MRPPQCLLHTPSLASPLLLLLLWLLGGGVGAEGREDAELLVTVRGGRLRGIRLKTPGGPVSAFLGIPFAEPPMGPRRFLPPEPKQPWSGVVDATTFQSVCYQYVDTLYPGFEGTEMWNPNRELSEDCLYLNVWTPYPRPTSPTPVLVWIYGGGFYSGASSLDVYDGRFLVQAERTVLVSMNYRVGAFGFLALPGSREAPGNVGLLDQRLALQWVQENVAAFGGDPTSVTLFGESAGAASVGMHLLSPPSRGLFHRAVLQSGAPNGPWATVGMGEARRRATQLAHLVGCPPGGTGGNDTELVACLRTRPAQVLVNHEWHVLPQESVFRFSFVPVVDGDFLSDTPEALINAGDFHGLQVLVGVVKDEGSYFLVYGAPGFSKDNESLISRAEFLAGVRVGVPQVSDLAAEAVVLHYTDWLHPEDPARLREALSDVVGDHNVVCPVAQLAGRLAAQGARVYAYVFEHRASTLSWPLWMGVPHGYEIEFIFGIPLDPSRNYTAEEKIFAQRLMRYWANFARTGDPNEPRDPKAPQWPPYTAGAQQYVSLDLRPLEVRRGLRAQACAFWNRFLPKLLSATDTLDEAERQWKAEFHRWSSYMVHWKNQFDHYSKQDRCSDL
assay metric: Ki

Name the reported Ki value associated with the compound CCOC(=O)C1=C(Nc2ccc(F)cc2)CC(c2ccc(F)cc2)N(c2ccc(F)cc2)C1c1ccc(F)cc1 (stereo unspecified) 2050 nM

* * *

Quick list: Activity per entry.
# Test system: Rattus norvegicus
# assay: Anti-diabetic activity in STZ-induced diabetic Sprague-Dawley rat model assessed as reduction in LDL level in plasma at 9 mg/kg, ip (reference value: 138.19 +/- 3.67 mg/dl)
# Format: functional
Unit mg/dL implied. Number only.

Examples with answers:
- compound: "CCOC(=O)C1=C(Nc2ccc(F)cc2)CC(c2ccc(C(F)(F)F)cc2)N(c2ccc(F)cc2)C1c1ccc(C(F)(F)F)cc1 (centres undefined)"
  unit name: "mg/dL"
  measured result: 47.51
- compound: "CCOC(=O)C1=C(Nc2ccc(F)cc2)CC(c2ccc(Cl)cc2)N(c2ccc(F)cc2)C1c1ccc(Cl)cc1 (centres undefined)"
  unit name: "mg/dL"
  measured result: 61.39

Name the reported Activity value associated with the compound CCOC(=O)C1=C(Nc2ccc(F)cc2)CC(c2ccc(F)cc2)N(c2ccc(F)cc2)C1c1ccc(F)cc1 (centres undefined) 59.16

Now this one: CCOC(=O)C1=C(Nc2cccc(F)c2)CC(c2ccc(C(F)(F)F)cc2)N(c2cccc(F)c2)C1c1ccc(C(F)(F)F)cc1 (centres undefined) 51.22

* * *

Quick list: pIC50 per entry.
# assay: Inhibition of alpha-glucosidase (unknown origin)
# Parameters: species or system Homo sapiens
Expect pIC50 as a plain number equal to -log10 of the molar concentration.

- molecule: "CCOC(=O)C1=C(Nc2ccccc2)CC(c2ccc(F)cc2)N(c2ccccc2)C1c1ccc(F)cc1 (centres undefined)"
  pIC50: 6.33
- molecule: "CCOC(=O)C1=C(Nc2cccc(F)c2)CC(c2ccc(F)cc2)N(c2cccc(F)c2)C1c1ccc(F)cc1 (centres undefined)"
  pIC50: 6.44
- molecule: "CCOC(=O)C1=C(Nc2cccc(F)c2)CC(c2ccc(C(F)(F)F)cc2)N(c2cccc(F)c2)C1c1ccc(C(F)(F)F)cc1 (centres undefined)"
  pIC50: 6.66

Now look at this entry.
Name the reported pIC50 value associated with the molecule CCOC(=O)C1=C(Nc2ccc(F)cc2)CC(c2cccc(F)c2)N(c2ccc(F)cc2)C1c1cccc(F)c1 (centres undefined) 6.34

* * *

# System: Rattus norvegicus
# assay: Anti-diabetic activity in STZ-induced diabetic Sprague-Dawley rat model assessed as increase in body weight at 9 mg/kg, ip measured at day 14
# Format: functional, organism-based
# test conditions: time 14.0 day
Calls of active or inactive are those of the source. The rule behind the calls is not given here.

- compound: "CCOC(=O)C1=C(Nc2ccc(F)cc2)CC(c2ccc(Cl)cc2)N(c2ccc(F)cc2)C1c1ccc(Cl)cc1 (centres undefined)"
  assay system: "Rattus norvegicus"
  Activity: "Active"
- compound: "CCOC(=O)C1=C(Nc2cccc(F)c2)CC(c2ccc(C(F)(F)F)cc2)N(c2cccc(F)c2)C1c1ccc(C(F)(F)F)cc1 (centres undefined)"
  assay system: "Rattus norvegicus"
  Activity: "Active"
- compound: "CCOC(=O)C1=C(Nc2ccc(F)cc2)CC(c2ccc(C(F)(F)F)cc2)N(c2ccc(F)cc2)C1c1ccc(C(F)(F)F)cc1 (centres undefined)"
  assay system: "Rattus norvegicus"
  Activity: "Active"
- compound: "CCOC(=O)C1=C(Nc2ccc(F)cc2)CC(c2ccc(F)cc2)N(c2ccc(F)cc2)C1c1ccc(F)cc1 (centres undefined)"
  assay system: "Rattus norvegicus"
  Activity: "Active"

* * *

pIC50 tested on Acetylcholinesterase (Homo sapiens, UniProt P22303): recorded values
Expect pIC50 as a plain number equal to -log10 of the molar concentration.

- molecule: "CCOC(=O)C1=C(Nc2cccc(F)c2)CC(c2ccc(F)cc2)N(c2cccc(F)c2)C1c1ccc(F)cc1 (stereo not drawn)"
  pIC50: 5.85

I'm curious: which pIC50 was measured for CCOC(=O)C1=C(Nc2ccc(F)cc2)CC(c2ccc(F)cc2)N(c2ccc(F)cc2)C1c1ccc(F)cc1 (stereo not drawn) tested on Acetylcholinesterase (Homo sapiens, UniProt P22303)? 6.11

Now this one: CCOC(=O)C1=C(Nc2ccc(F)cc2)CC(c2cccc(F)c2)N(c2ccc(F)cc2)C1c1cccc(F)c1 (stereo not drawn) 5.95

Now this one: CCOC(=O)C1=C(Nc2cccc(F)c2)CC(c2ccc(C(F)(F)F)cc2)N(c2cccc(F)c2)C1c1ccc(C(F)(F)F)cc1 (stereo not drawn) 5.92

* * *

# assay: Inhibition of alpha-glucosidase (unknown origin) using p-nitrophenyl glucopyranoside as substrate assessed as inhibition constant by Lineweaver-Burk plot analysis
# Design: species or system Homo sapiens
assay metric: Ki (µM)
Unit µM implied. Number only.

Name the reported Ki value associated with the compound CCOC(=O)C1=C(Nc2ccc(F)cc2)CC(c2ccc(C(F)(F)F)cc2)N(c2ccc(F)cc2)C1c1ccc(C(F)(F)F)cc1 (stereo unspecified) 117

* * *

# Tested on: Rattus norvegicus
# assay: Anti-diabetic activity in STZ-induced diabetic Sprague-Dawley rat model assessed as reduction in blood glucose level at 9 mg/kg, ip measured at day 28 (reference value: 501.71 +/- 3.91 mg/dl)
# Format: functional
# test conditions: time 28 day
Quick list: Activity per entry.

- compound: "CCOC(=O)C1=C(Nc2ccc(F)cc2)CC(c2ccc(Cl)cc2)N(c2ccc(F)cc2)C1c1ccc(Cl)cc1 (centres undefined)"
  Activity: "167.81 mg/dL"
- compound: "CCOC(=O)C1=C(Nc2ccc(F)cc2)CC(c2ccc(C(F)(F)F)cc2)N(c2ccc(F)cc2)C1c1ccc(C(F)(F)F)cc1 (centres undefined)"
  Activity: "138.56 mg/dL"
- compound: "CCOC(=O)C1=C(Nc2ccc(F)cc2)CC(c2ccc(F)cc2)N(c2ccc(F)cc2)C1c1ccc(F)cc1 (centres undefined)"
  Activity: "159.45 mg/dL"

Now look at this entry.
Name the reported Activity value associated with the compound CCOC(=O)C1=C(Nc2cccc(F)c2)CC(c2ccc(C(F)(F)F)cc2)N(c2cccc(F)c2)C1c1ccc(C(F)(F)F)cc1 (centres undefined) 152.61 mg/dL

* * *

IC50 tested on Cholinesterase (Homo sapiens, UniProt P06276): recorded values
Sequence (P06276 whole entry): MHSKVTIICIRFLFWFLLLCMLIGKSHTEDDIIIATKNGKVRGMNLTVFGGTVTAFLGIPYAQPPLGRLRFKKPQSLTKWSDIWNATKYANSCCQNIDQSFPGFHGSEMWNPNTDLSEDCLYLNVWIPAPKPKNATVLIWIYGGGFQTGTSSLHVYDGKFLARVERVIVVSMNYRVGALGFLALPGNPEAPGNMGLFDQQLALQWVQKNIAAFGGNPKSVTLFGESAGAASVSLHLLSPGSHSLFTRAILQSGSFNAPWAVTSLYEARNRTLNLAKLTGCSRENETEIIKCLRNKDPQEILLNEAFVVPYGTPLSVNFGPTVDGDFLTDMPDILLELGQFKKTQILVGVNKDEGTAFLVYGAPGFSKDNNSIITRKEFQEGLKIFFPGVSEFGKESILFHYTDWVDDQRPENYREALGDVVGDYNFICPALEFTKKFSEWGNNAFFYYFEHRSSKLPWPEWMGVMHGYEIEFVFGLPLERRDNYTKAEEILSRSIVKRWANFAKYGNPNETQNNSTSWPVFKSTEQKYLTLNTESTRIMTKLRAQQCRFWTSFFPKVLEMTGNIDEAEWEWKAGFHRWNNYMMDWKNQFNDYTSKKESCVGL
Unit nM implied. Number only.

- compound: "CCOC(=O)C1=C(Nc2ccc(F)cc2)CC(c2cccc(F)c2)N(c2ccc(F)cc2)C1c1cccc(F)c1 (stereo not drawn)"
  IC50 (nM): 1330
- compound: "CCOC(=O)C1=C(Nc2ccc(F)cc2)CC(c2ccc(Cl)cc2)N(c2ccc(F)cc2)C1c1ccc(Cl)cc1 (stereo not drawn)"
  IC50 (nM): 1020
- compound: "CCOC(=O)C1=C(Nc2ccccc2)CC(c2ccc(F)cc2)N(c2ccccc2)C1c1ccc(F)cc1 (stereo not drawn)"
  IC50 (nM): 1280
- compound: "CCOC(=O)C1=C(Nc2cccc(F)c2)CC(c2ccc(Cl)cc2)N(c2cccc(F)c2)C1c1ccc(Cl)cc1 (stereo not drawn)"
  IC50 (nM): 1700
- compound: "CCOC(=O)C1=C(Nc2ccc(F)cc2)CC(c2ccc(F)cc2)N(c2ccc(F)cc2)C1c1ccc(F)cc1 (stereo not drawn)"
  IC50 (nM): 739

I'm curious: which IC50 was measured for CCOC(=O)C1=C(Nc2ccc(F)cc2)CC(c2ccc(C(F)(F)F)cc2)N(c2ccc(F)cc2)C1c1ccc(C(F)(F)F)cc1 (stereo not drawn) tested on Cholinesterase (Homo sapiens, UniProt P06276)? 1020

Now this one: CCOC(=O)C1=C(Nc2cccc(F)c2)CC(c2ccc(C(F)(F)F)cc2)N(c2cccc(F)c2)C1c1ccc(C(F)(F)F)cc1 (stereo not drawn) 1270

Now this one: CCOC(=O)C1=C(Nc2cccc(F)c2)CC(c2ccc(F)cc2)N(c2cccc(F)c2)C1c1ccc(F)cc1 (stereo not drawn) 1990

* * *

# assay: Inhibition of alpha-glucosidase (unknown origin)
# Parameters: species or system Homo sapiens
assay metric: IC50 (µM)
Unit µM implied. Number only.

- molecule: "CCOC(=O)C1=C(Nc2cccc(F)c2)CC(c2ccc(Cl)cc2)N(c2cccc(F)c2)C1c1ccc(Cl)cc1 (stereo not given)"
  measured result: 0.384

Name the reported IC50 value associated with the molecule CCOC(=O)C1=C(Nc2ccc(F)cc2)CC(c2ccc(Cl)cc2)N(c2ccc(F)cc2)C1c1ccc(Cl)cc1 (stereo not given) 0.291

Now this one: CCOC(=O)C1=C(Nc2ccc(F)cc2)CC(c2ccc(C(F)(F)F)cc2)N(c2ccc(F)cc2)C1c1ccc(C(F)(F)F)cc1 (stereo not given) 0.176

Now this one: CCOC(=O)C1=C(Nc2ccc(F)cc2)CC(c2ccc(F)cc2)N(c2ccc(F)cc2)C1c1ccc(F)cc1 (stereo not given) 0.251

Now this one: C[C@H]1O[C@H](O[C@H]2[C@H](O)[C@@H](O)[C@@H](O[C@H]3[C@H](O)[C@@H](O)C(O)O[C@@H]3CO)O[C@@H]2CO)[C@H](O)[C@@H](O)[C@@H]1N[C@H]1C=C(CO)[C@@H](O)[C@H](O)[C@H]1O (stereo not given in full) 28.7
